# Tested Target: EPHB4 (Homo sapiens)
# Construct: purchased ReactionBiology
# Sequence (P54760 16-987): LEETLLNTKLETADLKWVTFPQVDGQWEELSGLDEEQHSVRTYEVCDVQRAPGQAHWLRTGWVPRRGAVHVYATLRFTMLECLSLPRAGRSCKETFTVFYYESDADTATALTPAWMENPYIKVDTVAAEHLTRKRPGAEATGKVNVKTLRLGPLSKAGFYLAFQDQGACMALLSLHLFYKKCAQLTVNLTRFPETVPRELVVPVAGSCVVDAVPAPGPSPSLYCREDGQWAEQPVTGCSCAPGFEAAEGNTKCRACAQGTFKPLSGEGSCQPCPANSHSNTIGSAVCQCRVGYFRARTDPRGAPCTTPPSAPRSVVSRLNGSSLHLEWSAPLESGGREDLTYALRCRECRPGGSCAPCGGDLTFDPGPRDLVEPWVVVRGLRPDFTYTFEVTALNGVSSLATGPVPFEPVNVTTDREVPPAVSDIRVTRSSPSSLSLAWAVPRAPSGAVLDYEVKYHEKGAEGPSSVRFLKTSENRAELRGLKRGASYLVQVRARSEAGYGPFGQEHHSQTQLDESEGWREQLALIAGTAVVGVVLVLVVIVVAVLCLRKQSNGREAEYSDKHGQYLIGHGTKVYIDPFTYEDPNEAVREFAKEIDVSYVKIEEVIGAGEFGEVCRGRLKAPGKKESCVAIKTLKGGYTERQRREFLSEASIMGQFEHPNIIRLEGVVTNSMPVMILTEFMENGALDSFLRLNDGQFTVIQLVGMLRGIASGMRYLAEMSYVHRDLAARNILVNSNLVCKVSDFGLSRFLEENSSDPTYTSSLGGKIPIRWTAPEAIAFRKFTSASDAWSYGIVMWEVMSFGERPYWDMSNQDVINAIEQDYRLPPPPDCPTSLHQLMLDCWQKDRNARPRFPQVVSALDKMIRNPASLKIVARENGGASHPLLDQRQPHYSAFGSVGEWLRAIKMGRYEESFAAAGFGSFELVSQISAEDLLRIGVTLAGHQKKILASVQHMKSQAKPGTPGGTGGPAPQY
# Assay Notes: Kinase activity test (ReactionBiology), % enzyme activity relative to DMSO;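 note: EPHB4 was one of ten selected kinases in the screening panel, with enzyme activity expressed as a percentage of DMSO controls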
# Format: biochemical
# Recorded Conditions: EPHB4; 1 uM; Average; read-out: % Enzyme Activity (relative to DMSO controls), Average
Some compounds, each annotated with its measured remaining activity at 1 µM.
Number in %, nothing else.

Compound	Result Unit	remaining activity at 1 µM
CC(C)c1nc(CN(C)C(=O)N[C@H](C(=O)N[C@@H](Cc2ccccc2)C[C@H](O)[C@H](Cc2ccccc2)NC(=O)OCc2cncs2)C(C)C)cs1 [Ritonavir, reference compound]	%	99.2
O=C(O)c1ccccc1O	%	101
Cc1cccc(C)c1OCC(=O)N[C@@H](Cc1ccccc1)[C@@H](O)C[C@H](Cc1ccccc1)NC(=O)[C@H](C(C)C)N1CCCNC1=O [Lopinavir, reference compound]	%	92.6

Let's switch to this compound now.
Q: Consider the compound shown here: Oc1cc(Cl)ccc1Oc1ccc(Cl)cc1Cl [Triclosan, reference compound] What is its recorded remaining activity at 1 µM?
Ans: 100

Ref: paper PMC7252619
